target: Kappa-type opioid receptor (Homo sapiens, UniProt P41145); format: functional
Sequence (P41145 whole entry): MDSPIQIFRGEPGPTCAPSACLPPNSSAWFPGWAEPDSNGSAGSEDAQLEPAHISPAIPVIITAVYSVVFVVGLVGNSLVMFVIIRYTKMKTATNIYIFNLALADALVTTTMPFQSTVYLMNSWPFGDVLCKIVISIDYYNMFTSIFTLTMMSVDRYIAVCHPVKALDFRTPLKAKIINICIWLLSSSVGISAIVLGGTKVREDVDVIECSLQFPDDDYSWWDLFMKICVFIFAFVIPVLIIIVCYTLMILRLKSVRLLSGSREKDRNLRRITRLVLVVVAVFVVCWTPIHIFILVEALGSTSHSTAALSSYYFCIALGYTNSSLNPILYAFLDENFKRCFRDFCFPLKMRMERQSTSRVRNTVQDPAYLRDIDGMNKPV
readout.kind: IC50 (µM)
Give a bare numeral; the unit µM is implied.

Prompt: Consider the compound `CCCC(=O)OCCNc1cc(Sc2nccn2C)c2nonc2c1[N+](=O)[O-]` . State its measured IC50.
Completion: 30.5

---

biological target: Cytochrome P450 3A4 (Homo sapiens); conditions: Potency;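 note: confirmatory qHTS run detecting inhibitors and substrates of CYP3A4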
Sequence (P08684 whole entry): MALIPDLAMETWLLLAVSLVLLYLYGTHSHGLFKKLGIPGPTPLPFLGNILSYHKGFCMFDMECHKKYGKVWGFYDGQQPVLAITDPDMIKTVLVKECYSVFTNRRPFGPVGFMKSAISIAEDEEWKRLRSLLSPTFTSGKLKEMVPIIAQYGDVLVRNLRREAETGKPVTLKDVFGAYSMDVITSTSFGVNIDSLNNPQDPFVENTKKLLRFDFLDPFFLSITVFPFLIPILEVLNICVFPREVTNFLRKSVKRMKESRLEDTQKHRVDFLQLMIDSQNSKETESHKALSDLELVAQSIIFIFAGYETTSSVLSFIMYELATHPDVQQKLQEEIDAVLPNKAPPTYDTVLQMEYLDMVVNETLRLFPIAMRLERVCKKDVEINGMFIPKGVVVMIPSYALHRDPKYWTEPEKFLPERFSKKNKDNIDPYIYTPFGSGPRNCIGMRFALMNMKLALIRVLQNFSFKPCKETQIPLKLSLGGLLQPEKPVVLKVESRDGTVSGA
readout.kind: AC50

Prompt: Consider the compound CC12C=C(/C=C/c3ccc(C(F)(F)F)cc3)C(C)(C1)C(c1ccc(C(F)(F)F)cc1)CC2=O (centres undefined) . State its measured AC50.
Completion: 3.98 µM (inconclusive)

Prompt: Consider the compound Cc1cccc2c3c(ccc12)C1=C(C(=O)C3=O)C(C)CO1 (centres undefined) . State its measured AC50.
Completion: 12.6 µM (inconclusive)

Prompt: Consider the compound CC1(C)C(O)CC[C@]2(C)C1CC[C@@]1(C)C2C(=O)C=C2[C@@H]3C[C@@](C)(C(=O)O)CC[C@@]3(C)CCC21C (some centres undefined) . State its measured AC50.
Completion: 39.8 µM (inconclusive)

Prompt: Consider the compound `COc1ccc(C(=O)CC(=O)c2c(O)cc(OC)cc2OC)cc1` . State its measured AC50.
Completion: 3.98 µM (inconclusive)

---

target: Beta Lactamase (Pseudomonas aeruginosa); test: BLA reporter interference, concentration series – BLA reporter cells, FRET fluorescence, artefact control for TLR9-MyD88 binding inhibitor project, dose response (AID 588341); assay type: cell-based;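 note: cell based assay in CHO-K1 cells stably expressing beta-lactamase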
Sequence (Q932Y6 whole entry): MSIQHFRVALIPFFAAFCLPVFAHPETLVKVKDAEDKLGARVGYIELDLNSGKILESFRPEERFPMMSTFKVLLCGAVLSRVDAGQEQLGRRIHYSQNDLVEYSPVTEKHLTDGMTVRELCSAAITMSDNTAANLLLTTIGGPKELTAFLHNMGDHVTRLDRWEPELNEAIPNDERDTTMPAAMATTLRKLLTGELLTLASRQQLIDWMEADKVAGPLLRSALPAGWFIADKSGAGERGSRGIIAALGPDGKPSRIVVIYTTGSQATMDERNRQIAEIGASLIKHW
Calls of active or inactive are those of the source.
Response enum: active, inactive

Prompt: Which outcome was entered for the molecule `CCCC(=O)OCCNc1cc(Sc2nccn2C)c2nonc2c1[N+](=O)[O-]` in this test?
Completion: active

Prompt: Which outcome was entered for the molecule `CN(C)c1ccc(/C=C/C(=O)c2cccc(Br)c2)cc1` in this test?
Completion: active

Prompt: Which outcome was entered for the molecule `Cn1c2ccccc2c(=O)c2ccc(C#Cc3ccc(N)cc3)cc21` in this test?
Completion: active

Prompt: Which outcome was entered for the molecule `C/C(=N\Nc1ccc([N+](=O)[O-])cc1)c1ccc2c(c1)OCO2` in this test?
Completion: inactive

---

target: Aurora kinase A (Homo sapiens); format: functional;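 note: value from the Navigating the Kinome kinase panel profiling, panel entry STK6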
Sequence (O14965 whole entry): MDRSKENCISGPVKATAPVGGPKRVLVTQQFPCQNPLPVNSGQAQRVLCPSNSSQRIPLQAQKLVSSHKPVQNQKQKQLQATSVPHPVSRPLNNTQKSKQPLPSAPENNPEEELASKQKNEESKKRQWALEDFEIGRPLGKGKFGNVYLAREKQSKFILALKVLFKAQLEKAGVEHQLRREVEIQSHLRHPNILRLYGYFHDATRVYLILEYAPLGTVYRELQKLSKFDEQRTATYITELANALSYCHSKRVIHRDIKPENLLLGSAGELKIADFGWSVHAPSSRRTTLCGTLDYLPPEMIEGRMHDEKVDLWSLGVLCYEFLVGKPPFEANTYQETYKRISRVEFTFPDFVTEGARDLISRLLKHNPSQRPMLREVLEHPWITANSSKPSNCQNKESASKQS
Activity calls are given as the source filed them.
readout.kind: Ki

Prompt: Consider the compound COCCOC1CCC(n2nc(-c3ccc(Nc4nc5cc(Cl)ccc5o4)c(F)c3)c3c(N)ncnc32)CC1 (centres undefined) . State its measured Ki.
Completion: 39.8 nM (active)

Prompt: Consider the compound `COc1cc(Nc2ncc(C(F)(F)F)c(N)n2)cc(OC)c1OC` . State its measured Ki.
Completion: 200 nM (active)

Prompt: Consider the compound `Cc1ccc(NC(=O)Nc2ccc(-c3c(C(C)C)sc4ncnc(N)c34)cc2)cc1` . State its measured Ki.
Completion: 79.4 nM (active)

Prompt: Consider the compound `NC(=O)c1cccc2[nH]c(-c3ccc(N4CCN(Cc5ccccc5)CC4)nc3)nc12` . State its measured Ki.
Completion: 501 nM (active)

---

biological target: Cytochrome P450 2C19 (Homo sapiens, UniProt P33261); assay: Cytochrome panel assay with activity outcomes. Panel member name: p450-cyp2c19 Compounds with AC50 equal or less than 10 uM are considered active; format: functional; conditions: read-out: AC50
Sequence (P33261 whole entry): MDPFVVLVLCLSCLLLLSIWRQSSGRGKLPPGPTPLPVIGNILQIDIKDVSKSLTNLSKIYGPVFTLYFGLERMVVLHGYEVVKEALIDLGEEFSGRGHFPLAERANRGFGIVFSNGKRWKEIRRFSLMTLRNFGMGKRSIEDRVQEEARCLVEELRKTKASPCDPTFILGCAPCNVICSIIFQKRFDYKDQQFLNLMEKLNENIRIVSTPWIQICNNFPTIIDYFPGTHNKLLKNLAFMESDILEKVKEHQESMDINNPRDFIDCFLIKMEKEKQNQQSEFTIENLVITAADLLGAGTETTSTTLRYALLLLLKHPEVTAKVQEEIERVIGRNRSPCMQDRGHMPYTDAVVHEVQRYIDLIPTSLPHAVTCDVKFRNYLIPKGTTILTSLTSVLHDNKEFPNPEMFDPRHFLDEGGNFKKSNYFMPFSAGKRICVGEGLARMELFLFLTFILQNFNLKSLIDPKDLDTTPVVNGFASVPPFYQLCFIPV
readout.kind: AC50

Prompt: Consider the molecule `COCCNc1nc(-c2ccccc2Cl)nc2ccccc12` . State its measured AC50.
Completion: 0.0316 µM (inconclusive)

Prompt: Consider the molecule `Cc1nc2cnc(Oc3cccc(Cl)c3)nc2n(Cc2ccc(F)cc2)c1=O` . State its measured AC50.
Completion: 31.6 µM (inconclusive)

Prompt: Consider the molecule `O=C(CN1CCN(S(=O)(=O)c2ccc(F)cc2)CC1)Nc1ccc2c(c1)OCO2` . State its measured AC50.
Completion: 3.98 µM (inconclusive)

Prompt: Consider the molecule COC1=C(C)C(=O)c2c(c(COC(N)=O)c3n2C[C@@H]2[C@@H]3N2C)C1=O (some centres not stated) . State its measured AC50.
Completion: 0.794 µM (inconclusive)

Prompt: Consider the molecule `CC(C)(C)c1ccccc1OCCN1CCCC1` . State its measured AC50.
Completion: 35.5 µM (inconclusive)

Prompt: Consider the molecule `COc1cccc(C(=O)NCCN2CCOCC2)c1` . State its measured AC50.
Completion: 20 µM (inconclusive)

Prompt: Consider the molecule `CCOC(=O)c1c(NC(=O)CCC(=O)N2CCOCC2)sc2c1CC(C)(C)OC2` . State its measured AC50.
Completion: 0.224 µM (inconclusive)

Prompt: Consider the molecule O=C(C1CCCCC1)N1CC(=O)N2CCc3ccccc3[C@@H]2C1 [PRAZIQUANTEL, (R)-] . State its measured AC50.
Completion: 5.01 µM (inconclusive)

Prompt: Consider the molecule `Cc1cc(C)n(-c2ccc(Cl)c(C(=O)O)n2)n1` . State its measured AC50.
Completion: 6.31 µM (inconclusive)

Prompt: Consider the molecule `O=C(Cc1ccccc1)Nc1nc(=O)c2ccccc2s1` . State its measured AC50.
Completion: 2.82 µM (inconclusive)

Prompt: Consider the molecule `O=C(c1ccco1)N1CCC2(CCCN(C(c3ccccc3)c3ccccc3)C2)CC1` . State its measured AC50.
Completion: 39.8 µM (inconclusive)

Prompt: Consider the molecule `O=P(O)(COc1ccccc1)COc1ccccc1` . State its measured AC50.
Completion: 28.2 µM (inconclusive)

---

biological target: UniProt:P9WMR3; test: DnaB intein splicing inhibitors, dose response, biochemical, cell-free fluorescence (AID 449749); assay type: functional
Sequence (P9WMR3 1-399, added parts left off): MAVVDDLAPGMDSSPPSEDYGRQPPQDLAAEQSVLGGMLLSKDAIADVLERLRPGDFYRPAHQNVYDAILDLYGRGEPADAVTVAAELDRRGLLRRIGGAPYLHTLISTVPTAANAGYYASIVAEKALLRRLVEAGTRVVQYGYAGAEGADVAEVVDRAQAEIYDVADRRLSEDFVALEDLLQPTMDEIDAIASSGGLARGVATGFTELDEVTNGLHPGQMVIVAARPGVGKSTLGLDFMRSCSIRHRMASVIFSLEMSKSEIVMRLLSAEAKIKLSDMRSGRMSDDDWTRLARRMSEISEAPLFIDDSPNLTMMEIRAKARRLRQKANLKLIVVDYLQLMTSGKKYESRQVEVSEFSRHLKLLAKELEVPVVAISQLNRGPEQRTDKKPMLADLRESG
The source made the active and inactive calls.
Response enum: class 1 for active, class 0 for inactive

Prompt: Which outcome was entered for the molecule `CCCCn1c(NS(=O)(=O)c2ccccc2)c(S(=O)(=O)c2ccc(C)cc2)c2nc3ccccc3nc21` in this test?
Completion: class 0

Prompt: Which outcome was entered for the molecule `CCOc1ccccc1Nc1nnc(Cc2ccccc2Cl)c(O)n1` in this test?
Completion: class 0

Prompt: Which outcome was entered for the molecule `C/C(CC(=O)Nc1cc(C)ccn1)=N\NC(=O)COc1cccc(C)c1` in this test?
Completion: class 1

Prompt: Which outcome was entered for the molecule `Cc1ccc(-c2cc(NC(=O)CCl)n(-c3ccccc3)n2)cc1` in this test?
Completion: class 1

Prompt: Which outcome was entered for the molecule `O=C1C(Cl)=C(N2CCCCC2)C(=O)N1c1ccccc1Cl` in this test?
Completion: class 1

Prompt: Which outcome was entered for the molecule `O=C(O)c1ccc([N+](=O)[O-])c2c1C(=O)c1ccccc1C2=O` in this test?
Completion: class 1

Prompt: Which outcome was entered for the molecule `COC(=O)c1nc(O)c2ccccc2c1O` in this test?
Completion: class 1

Prompt: Which outcome was entered for the molecule `COc1cc(/C=C2/SC(=S)N(Cc3ccccc3)C2=O)ccc1OCC(=O)O` in this test?
Completion: class 1

Prompt: Which outcome was entered for the molecule CC1=C(C)CC2(SC1)C(=O)N(c1ccccc1)N=C2N (stereo unspecified) in this test?
Completion: class 1

Prompt: Which outcome was entered for the molecule `Cc1n[nH]c2c1C1(CCOCC1)C(C#N)=C(N)O2` in this test?
Completion: class 1

Prompt: Which outcome was entered for the molecule `O=[N+]([O-])c1cc([N+](=O)[O-])c2oc(-c3ccccc3)c(Br)c2c1O` in this test?
Completion: class 1

---

molecular target: Rac GTPase-activating protein 1 (Homo sapiens); experiment: blockers of MgcRacGAP-driven Rac1 GTP hydrolysis – biochemical, ADP Hunter fluorescence, primary and confirmatory, confirmation (AID 624330); type: functional
Sequence (Q9H0H5 whole entry): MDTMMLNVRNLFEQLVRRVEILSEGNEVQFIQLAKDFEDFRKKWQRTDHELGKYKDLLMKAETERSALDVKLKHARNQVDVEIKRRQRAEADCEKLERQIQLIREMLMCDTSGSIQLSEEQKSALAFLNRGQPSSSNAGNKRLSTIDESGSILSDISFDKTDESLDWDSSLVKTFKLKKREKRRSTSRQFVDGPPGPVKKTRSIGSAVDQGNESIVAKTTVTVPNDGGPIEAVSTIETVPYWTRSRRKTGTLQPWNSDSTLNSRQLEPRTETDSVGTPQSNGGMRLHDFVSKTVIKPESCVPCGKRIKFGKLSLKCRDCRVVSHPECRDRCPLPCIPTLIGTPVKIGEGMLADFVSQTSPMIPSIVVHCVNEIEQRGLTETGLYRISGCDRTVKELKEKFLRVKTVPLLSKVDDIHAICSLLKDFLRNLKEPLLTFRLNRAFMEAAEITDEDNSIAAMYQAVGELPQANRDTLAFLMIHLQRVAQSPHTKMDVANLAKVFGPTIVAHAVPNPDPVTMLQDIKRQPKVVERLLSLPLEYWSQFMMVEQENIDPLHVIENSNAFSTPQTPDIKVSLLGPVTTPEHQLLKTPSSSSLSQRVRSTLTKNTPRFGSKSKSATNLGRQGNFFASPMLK
The source made the active and inactive calls.
readout.kind: IC50

Prompt: Consider the molecule `CCc1nc(Nc2ccc(N3CCN(C(C)=O)CC3)cc2)c2oc3ccccc3c2n1` . State its measured IC50.
Completion: 36.8 µM (active)

Prompt: Consider the molecule `CCN(CC)c1ccc(NC(=O)CN2CCN(c3ccccn3)CC2)cc1` . State its measured IC50.
Completion: 131 µM (active)

Prompt: Consider the molecule CCS(=O)(=O)NC(C)C(c1cccs1)N1CCN(c2ccc(OC)cc2)CC1 (stereo unspecified) . State its measured IC50.
Completion: 91.3 µM (active)

Prompt: Consider the molecule `CC(=O)Nc1ccc(N=Nc2ccc(O)cc2)cc1` . State its measured IC50.
Completion: 27.1 µM (active)

Prompt: Consider the molecule `Cc1cccc(-c2nnc(S)n2/N=C/c2ccco2)c1` . State its measured IC50.
Completion: 89.6 µM (active)

Prompt: Consider the molecule `COc1cc(/C=N/NC(=O)CNC(=O)c2cccs2)ccc1O` . State its measured IC50.
Completion: 42.2 µM (active)

---

molecular target: Protein RecA (Mycobacterium tuberculosis); assay: Fluorescence Cell-Free Homogeneous Dose Retest to Identify Inhibitors of RecA-Intein Splicing Activity. [Related pubchem assays (depositor defined):AID2097, AID2223, AID489010, AID492950]; format: functional
Active and inactive are the calls of the source.
Kindly supply the reported EC50 values for the records listed here.

Prompt: Consider the compound CC1=C(C)CC2(SC1)C(=O)N(c1ccccc1)N=C2N (configuration not stated) . State its measured EC50.
Completion: 3.4 µM (active)

Prompt: Consider the compound CC(=O)NC1C(=O)N(CCN2CCOCC2)c2ccc(C)cc21 (configuration not stated) . State its measured EC50.
Completion: 8.53 µM (active)

Prompt: Consider the compound Cc1ccccc1-c1nc(CN(C)C(C)c2ccon2)c(C)o1 (configuration not stated) . State its measured EC50.
Completion: 1.15 µM (active)

Prompt: Consider the compound `Cc1ccc(-c2cc(NC(=O)CCl)n(-c3ccccc3)n2)cc1` . State its measured EC50.
Completion: 5.68 µM (active)

Prompt: Consider the compound `C/C(CC(=O)Nc1cc(C)ccn1)=N\NC(=O)COc1cccc(C)c1` . State its measured EC50.
Completion: 1.54 µM (active)

Prompt: Consider the compound O=S(=O)(N[C@H]1C[C@@H](NS(=O)(=O)OCC(Cl)(Cl)Cl)C2CCCCC21)OCC(Cl)(Cl)Cl (some centres not stated) . State its measured EC50.
Completion: 50.9 µM (active)

Prompt: Consider the compound `COc1cc(/C=C2/SC(=S)N(Cc3ccccc3)C2=O)ccc1OCC(=O)O` . State its measured EC50.
Completion: 6.85 µM (active)

These data points were gathered from ChEMBL document CHEMBL1201862.
